Exercise: state measured growth inhibition for each of the compounds provided.
# test_summary: HT29 colon tumor cell growth inhibition, primary screen, imaging, high content imaging, 48 h, CellTiter-Glo (AID 771)
# test_conditions: HCS imaging cell count, measured here: ATP CellTiter-Glo viability inhibition, at 10 µM, stronger effect = higher value
About 55 (2%) of roughly 3,300 compounds were called active. Many of the other results were omitted from the sample, so actives are more common in it than they were.
Give bare numbers, in %.

Worked examples, 8 compounds total:
>  <compound>
CCN1CCc2c(C#N)c(N3CCCCC3)nc(NCc3ccccc3)c2C1

>  <growth inhibition (%)>
20.2

$$$$
>  <compound>
Cc1ccc2[nH]c3c(N4CCN(Cc5ccccc5)CC4)ncnc3c2c1

>  <growth inhibition (%)>
-1.83

$$$$
>  <compound>
Cc1ccc(NC(=O)c2cc(N3CCOCC3)nc3ccccc23)cc1

>  <growth inhibition (%)>
31.6

$$$$
>  <compound>
N#Cc1c(NCCN)nc(NCc2ccccc2)c2c1CCN(Cc1ccccc1)C2

>  <growth inhibition (%)>
87.7

$$$$
>  <compound>
CCN1CCc2c(C#N)c(NCc3ccccc3)nc(NCCO)c2C1

>  <growth inhibition (%)>
1.65

$$$$
>  <compound>
CCN1CCc2c(C#N)c(NCc3ccccc3)nc(N(CC)CC)c2C1

>  <growth inhibition (%)>
-0.65

$$$$
>  <compound>
c1ccc2c(c1)[nH]c1c(N3CCN(C4CCCCC4)CC3)ncnc12

>  <growth inhibition (%)>
2.53

$$$$
>  <compound>
CN1CCN(Cc2c(O)c(Cl)cc3c(-c4ccccc4)cc(=O)oc23)CC1

>  <growth inhibition (%)>
-6.84

$$$$

Working through the 6 compounds below one at a time, give growth inhibition for each.
1. C=CCNc1nc(N2CCCCC2)c(C#N)c2c1CN(Cc1ccccc1)CC2
2. Clc1ccc(-n2ncc3c(NCc4ccco4)ncnc32)cc1
3. CCN1CCc2c(C#N)c(N3CCOCC3)nc(NCc3ccccc3)c2C1
4. Fc1ccc2[nH]c3c(N4CCN(Cc5ccc6c(c5)OCO6)CC4)ncnc3c2c1
5. CN1CCc2c(C#N)c(N3CCCCC3)nc(NCc3ccccc3)c2C1
6. Clc1ccc(-n2ncc3c(NCc4cccs4)ncnc32)cc1

**A:**
[37, 76.5, 14.1, 92.8, 84.9, -1.37]

Dear reader, for each entry below, please note its growth inhibition.
1. Cc1cccc(-n2ncc3c(NCc4ccco4)ncnc32)c1
2. CCOc1ccc(Cn2c(O)cc(=O)[nH]c2=O)cc1
3. Cc1ccc2[nH]c3c(N4CCN(Cc5ccc6c(c5)OCO6)CC4)ncnc3c2c1
4. c1ccc(CN2CCN(c3ncnc4c3[nH]c3ccccc34)CC2)cc1
5. CN1CCN(c2ncnc3c2[nH]c2ccc(F)cc23)CC1

**A:**
1: 68.2; 2: -20.8; 3: 91.8; 4: 57.3; 5: 10
